Measured values drawn from patent US20250257034A1 for this set.

- Protocol Summary: Pharmacokinetic studies in rat (i.v.)
- Type: in vivo
- Condition: male, Sprague-Dawley, rat, plasma, iv, 1.1 mg/kg, I-1 1.10 mg/kg i.v., rat plasma, Mean ± SD; estimated from 2 points only; read-out: Apparent t1/2 (converted)
Test Readout: half-life (min)

1) [2H]C([2H])([2H])N(CCc1c[nH]c2ccc(SC)cc12)C([2H])([2H])[2H] :: 8.82

###

Listed compounds paired with reported RFU@10 μM
- Assay Target: human 5-HT1A receptor (Homo sapiens)
- Sequence (P08908 1-422): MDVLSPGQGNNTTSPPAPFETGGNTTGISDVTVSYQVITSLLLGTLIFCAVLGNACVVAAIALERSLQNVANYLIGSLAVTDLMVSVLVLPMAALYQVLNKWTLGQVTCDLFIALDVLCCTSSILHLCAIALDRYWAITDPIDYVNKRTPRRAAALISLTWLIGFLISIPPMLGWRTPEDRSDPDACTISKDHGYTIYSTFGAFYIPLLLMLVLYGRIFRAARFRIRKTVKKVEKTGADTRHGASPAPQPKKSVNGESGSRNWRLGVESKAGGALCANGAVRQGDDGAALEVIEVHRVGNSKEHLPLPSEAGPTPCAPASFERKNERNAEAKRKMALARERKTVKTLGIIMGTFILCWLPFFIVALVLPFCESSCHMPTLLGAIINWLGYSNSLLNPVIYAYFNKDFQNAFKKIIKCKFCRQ
- Protocol Summary: Human 5-HT1A functional FLIPR assay (agonist mode)
- Assay type: cell-based
- Set-up: expressed in transfected cells; host or cells: HTR1A&Gα15-CHO
- Condition: @10 μM, RFU=Fmax−Fmin (Table 47)
Test Readout: RFU@10 μM (RFU)

1. CN(C)CCc1c[nH]c2ccccc12 :: 204
2. CN(CCOC(F)F)CCc1c[nH]c2ccccc12 :: 163
3. CN(C)CCc1c[nH]c2ccc(OCCOC(F)F)cc12 :: 314
